From: patent US20120083522A1

# Tested on: human Factor XI mRNA
# PROCEDURE_TEXT: Dose-dependent inhibition in HepB3 cells, electroporation (Example 7)
# Format: cell-based
# CONDITIONS: 3333.33 nM, approx. 16 h
TEST_READOUT: percent inhibition of human Factor XI mRNA (%)
Note: unit % is implicit; provide only the numeric part.

SUBSTANCE	EXPERIMENTAL_VALUE
417003 (antisense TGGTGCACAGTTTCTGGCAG; 2-13-5 gapmer, wing sugar chemistry not given here, further chemistry not given here) [compound 417003]	84
416892 (antisense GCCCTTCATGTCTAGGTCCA; 3-14-3 chimeric gapmer, wing sugar chemistry not given here, further chemistry not given here) [compound 416892]	89

Continue with the substance presented below.
So for 416864 (antisense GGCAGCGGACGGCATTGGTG; 5-10-5 gapmer, wing sugar chemistry not given here, further chemistry not given here) [compound 416864] , the logged percent inhibition of human Factor XI mRNA turned out to be 75
